# Tested on: Yap1 mRNA
# test: Dose-dependent inhibition of human Yap1 in A-431 cells (Example 7, 10,000 cells per well, RTS36584)
# Type: cell-based
# condition-notes: Table 57, 62.5 nM, free uptake, A-431 cells 10,000 cells per well, 48 hours
Strand notation (5' to 3'): a small letter for the sugar, then the base; units joined by * are phosphorothioate-linked, units joined directly phosphodiester-linked; [ ] holds rarer units or linkages, { } end groups; capitals alone tell only the bases. k = constrained ethyl (cEt); [5mC] = 5-methylcytosine; d = 2'-deoxy (DNA)
quantity-measured: Yap1 mRNA, % UTC (% UTC)

| substance | reported-result |
| --- | --- |
| 958486 (kT*kT*kA*dG*dA*dG*d[5mC]*d[5mC]*dA*dA*d[5mC]*dT*dG*kT*kG*kA; antisense) [compound 958486] | 73 |
| 958451 (antisense k[5mC]*kA*k[5mC]*dG*dA*dT*d[5mC]*dT*dG*dA*dT*dG*d[5mC]*k[5mC]*k[5mC]*kG) [compound 958451] | 74 |
| 958761 (kA*kG*kT*d[5mC]*dT*d[5mC]*dA*dA*d[5mC]*dA*dA*d[5mC]*d[5mC]*kT*kT*k[5mC]; antisense) [compound 958761] | 73 |
| 958781 (kG*kT*k[5mC]*dA*dT*d[5mC]*dT*dA*dT*dG*dT*dG*dT*k[5mC]*k[5mC]*kT; antisense) [compound 958781] | 45 |
| 958531 (kG*kT*kA*dG*dG*dA*dG*d[5mC]*dA*dA*dG*dT*d[5mC]*kT*kT*kG; antisense) [compound 958531] | 63 |
| 958506 (kG*k[5mC]*kA*dG*dA*dT*dA*dA*dT*d[5mC]*dG*dA*dG*kA*kT*kT; antisense) [compound 958506] | 55 |

---

Entries and their Yap1 mRNA, % UTC values follow.
# System: Yap1 mRNA
# test: Dose-dependent inhibition of human Yap1 in A-431 cells (Example 8, 10,000 cells per well, RTS4814)
# Type: cell-based
# condition-notes: 500.0 nM; A-431 cells, 10,000 cells per well, free uptake, approximately 48 hours, RTS4814
Strand notation (5' to 3'): a small letter for the sugar, then the base; units joined by * are phosphorothioate-linked, units joined directly phosphodiester-linked; [ ] holds rarer units or linkages, { } end groups; capitals alone tell only the bases. k = constrained ethyl (cEt); [5mC] = 5-methylcytosine; d = 2'-deoxy (DNA)

| substance | Yap1 mRNA, % UTC (% UTC) |
| --- | --- |
| 1076017 (k[5mC]*kT*kA*dA*dT*dA*dG*dG*dA*dT*dG*dG*dA*kT*kT*k[5mC]; antisense) [compound 1076017] | 9 |
| 1076370 (antisense kG*kA*kT*dT*dA*dT*dT*d[5mC]*dG*dG*dT*dA*dT*kT*kT*kT) [compound 1076370] | 4 |
| 1074508 (kG*kA*kG*dA*dG*dA*dG*d[5mC]*dA*dG*dA*dT*dA*kA*kT*k[5mC]; antisense) [compound 1074508] | 14 |
| 1075052 (antisense kA*kT*kA*dT*dA*dT*dA*d[5mC]*dT*dT*dG*dA*dT*k[5mC]*k[5mC]*kA) [compound 1075052] | 4 |
| 1075138 (kA*kA*kT*dA*dA*dT*dA*dG*dA*dT*dA*d[5mC]*dT*kG*k[5mC]*k[5mC]; antisense) [compound 1075138] | 8 |
| 1074418 (kT*kT*k[5mC]*dT*dT*dT*dA*dG*dA*dG*d[5mC]*d[5mC]*dA*kA*k[5mC]*kT; antisense) [compound 1074418] | 9 |
